Target: CB1 (UniProt P21554)
Assay: CB1 radioligand binding assay
Parameters: species or system human
Conditions: read-out: Ki (CB1)
MEASURE: pKi
Keep in mind that pKi stands for -log10 of concentration in molar terms.

A selection of reference data follows.
COMPOUND: O=S(=O)(/N=C(/N=C1\CCCCN1)N1CCC(c2ccccc2)C(c2ccc(Cl)cc2)=N1)c1ccc(C(F)(F)F)cc1 (stereo not drawn)
MEASURE: pKi
QUANTITATIVE_RESULT: 7.59
--
COMPOUND: N/C(=N\C(=N\S(=O)(=O)c1ccc(C(F)(F)F)cc1)N1CCC(c2ccccc2)C(c2ccc(Cl)cc2)=N1)c1cccs1 (stereo not drawn) [Compound 10w]
MEASURE: pKi
QUANTITATIVE_RESULT: 6.85
--
COMPOUND: CC(C)(C)/C(N)=N/C(=N/S(=O)(=O)c1ccc(C(F)(F)F)cc1)N1CCC(c2ccccc2)C(c2ccc(Cl)cc2)=N1 (single isomer, unassigned) [Compound 10oE2]
MEASURE: pKi
QUANTITATIVE_RESULT: 8.14
--
COMPOUND: CC(C)/C(N)=N\C(=N\S(=O)(=O)c1ccc(C(F)(F)F)cc1)N1CCC(c2ccccc2)C(c2ccc(Cl)cc2)=N1 (stereo not drawn) [Compound 10m]
MEASURE: pKi
QUANTITATIVE_RESULT: 7.64
--
COMPOUND: CC(N/C(=N/S(=O)(=O)c1ccc(C(F)(F)F)cc1)N1CCC(c2ccccc2)C(c2ccc(Cl)cc2)=N1)C(N)=O (single isomer, unassigned) [Compound 31b]
MEASURE: pKi
QUANTITATIVE_RESULT: 8.09

// next item, pKi requested
Lookup result for C/C(N)=N/C(=N/S(=O)(=O)c1ccc(C(F)(F)F)cc1)N1CCC(c2ccccc2)C(c2ccc(Br)cc2)=N1 (stereo not drawn) [Compound 10y] ; measured pKi: 7.24
